- test-details: TEAC (Trolox Equivalent Absorbance Capacity) assay
- test-settings: μM Trolox equivalents per gram; mean ± SD
I'd appreciate it if you could supply TEAC values for the items below.
Give the number; µM TE/g is assumed, so skip it.

Would you kindly share the measured TEAC for O=C(O[C@@H]1Cc2c(O)cc(O)cc2O[C@@H]1c1cc(O)c(O)c(O)c1)c1cc(O)c(O)c(O)c1 [EGCG, epigallocatechin gallate, reference compound] ?
4722.5

Now this one: CC(C)c1cc2c(c(O)c1O)[C@@]13CCCC(C)(C)[C@@H]1[C@](O)(OC3)C2=O
4876.3

Now this one: CC(C)C1=C(O)C(=O)C2=C(C1=O)[C@H](O)[C@@H](O)C1C(C)(C)CCC[C@]21C (stereo partly drawn) [Compound 1, 6β,7α-dihydroxyroyleanone]
5080.8

Now this one: CC(=O)OC1C2=C(C(=O)C(O)=C(C(C)C)C2=O)C2(C)CCCC(C)(C)C2C1O (stereo not drawn) [Compound 2, 7α-acetoxy-6β-hydroxyroyleanone]
3700.8

Now this one: CC(C)C1=C(O)C(=O)C2=C(C(=O)C(O)=C3C(C)(C)CCC[C@]23C)C1=O
225.5

###

I'd appreciate it if you could supply MIC90 values for the items below.
- System: Mtb H37Rv pMSp12::GFP bioreporter strain
- test-details: microbe, parasite or virus in culture
- Type: cell-based, Mycobacterium tuberculosis
- test-settings: Mycobacterium tuberculosis, H37RV, 168 h, supplement; […]; day 7; read-out: GFP Assay - 10pt DR: MIC90 [Media: 7H9 ADC GLU Tw, Day:7]

# returns recorded MIC90 (system: Mtb H37Rv pMSp12::GFP bioreporter strain) for CC(C)C1=C(O)C(=O)C2=C(C1=O)[C@H](O)[C@@H](O)C1C(C)(C)CCC[C@]21C (stereo partly drawn) [Compound 1, 6β,7α-dihydroxyroyleanone]
> 125 µg/mL

Now this one: CC(=O)OC1C2=C(C(=O)C(O)=C(C(C)C)C2=O)C2(C)CCCC(C)(C)C2C1O (stereo not drawn) [Compound 2, 7α-acetoxy-6β-hydroxyroyleanone]
15 µg/mL

Now this one: CC(C)C1=C(O)C(=O)C2=C(C1=O)[C@H](O)C[C@H]1C(C)(C)CCC[C@]21C [Compound 3, horminone]
> 125 µg/mL

Now this one: CC(C)c1cc2c(c(O)c1O)[C@@]13CCCC(C)(C)[C@@H]1[C@](O)(OC3)C2=O [Compound 5, carnosolon]
> 125 µg/mL

Now this one: CO[C@H]1/C=C/O[C@@]2(C)Oc3c(C)c(O)c4c(O)c(c(/C=N/N5CCN(C)CC5)c(O)c4c3C2=O)NC(=O)/C(C)=C\C=C\[C@H](C)[C@H](O)[C@@H](C)[C@@H](O)[C@@H](C)[C@H](OC(C)=O)[C@@H]1C [Rifampicin, reference compound]
0.001 µg/mL

Now this one: CC(C)C1=C(O)C(=O)C2=C(C(=O)C(O)=C3C(C)(C)CCC[C@]23C)C1=O [Compound 4, coleon U quinone]
> 125 µg/mL

Reference for the values: paper PMC7832401
